System: HCC-2998 colon
Assay: NCI-60 one-dose screen, 48 h
Conditions: 10 µM unless noted
About 83,000 compounds went through this panel and 20% of them were active in at least one assay; those are over-represented in the sample as a whole. Calls of active or inactive are those of the source. The calls were made as follows: active = growth percent below 10; inactive = the rest.
Outcomes: active, inactive

>  <compound>
CCCCCCCCCCCCCCCC1=NC(C)(C)CN1C(C)C

>  <class_label>
active

$$$$
>  <compound>
c1ccc(-c2nnn(-c3ccccc3)n2)cc1

>  <class_label>
inactive

$$$$
>  <compound>
COc1cc(-c2nn(C(=O)NCCN3CCN(C)CC3)cc2-c2ccncc2)ccc1Cl

>  <class_label>
inactive

$$$$
>  <compound>
CCC1=CC2CN(C1)Cc1c([nH]c3ccccc13)[C@@](C(=O)OC)(c1cc3c(cc1OC)N(C)[C@H]1[C@@](O)(C(=O)OC)[C@H](OC(C)=O)[C@]4(CC)C=CCN5CC[C@]31[C@@H]54)C2 (stereo not given in full)

>  <class_label>
active

$$$$
>  <compound>
CC1=CCC2C1CC=C(C)C(CC[C@H]1[C@@](C)(O)CCC3OC(C)(C)[C@H](OC(=O)c4ccccc4)CC[C@@]31C)C2(C)C (stereo not given in full)

>  <class_label>
inactive

$$$$
>  <compound>
CCOC(=O)C1=C(C(=O)OCC)N(c2cc(OC)c(OC)c(OC)c2)C(N)=C(C#N)C1c1cc(=O)[nH]c2ccccc12 (stereo not given)

>  <class_label>
inactive

$$$$
>  <compound>
O=C(CCl)N1c2ccccc2Oc2ccc3ccccc3c21

>  <class_label>
inactive

$$$$
>  <compound>
CCCCCCCCCCCCCCCCCC1=NCCN1CCO

>  <class_label>
inactive

$$$$
>  <compound>
NNc1ccc(S(N)(=O)=O)cc1

>  <class_label>
inactive

$$$$
>  <compound>
COc1cc2c(cc1OC)-c1cc(OC)c(OC)cc1C(CN(C)C)C2 (stereo not given)

>  <class_label>
inactive

$$$$
